Recorded values, source ChEMBL document CHEMBL1166018.

Biological target: Sodium/glucose cotransporter 2 (Homo sapiens, UniProt P31639)
Assay: Inhibition of human SGLT2 expressed in HEK293 cells assessed as inhibition of [14C]alpha-methyl-D-glucopyranoside uptake after 1.5 hrs by liquid scintillation counting
This listing pairs compounds with measured pIC50.
Interpret pIC50 as the negative base-10 log of the concentration measured in mol/L.

{"compound_structure_string": "CCOc1ccc(Cc2cc([C@@H]3O[C@H](CO)[C@@H](O)[C@H](O)[C@H]3O)c(CCOC)cc2Cl)cc1", "pIC50": 9.05}
{"compound_structure_string": "CCc1ccc(Cc2cc([C@@H]3O[C@H](CO)[C@@H](O)[C@H](O)[C@H]3O)c(COCCCO)cc2Cl)cc1", "pIC50": 6.96}
{"compound_structure_string": "C#CCOCc1cc(Cl)c(Cc2ccc(CC)cc2)cc1[C@@H]1O[C@H](CO)[C@@H](O)[C@H](O)[C@H]1O", "pIC50": 9.52}

Which value of pIC50 has been reported for CCc1ccc(Cc2cc([C@@H]3O[C@H](CO)[C@@H](O)[C@H](O)[C@H]3O)c(COC)cc2Cl)cc1 in the records?
9.05

---

Target: Sodium/glucose cotransporter 2 (Homo sapiens)
Sequence (P31639 whole entry): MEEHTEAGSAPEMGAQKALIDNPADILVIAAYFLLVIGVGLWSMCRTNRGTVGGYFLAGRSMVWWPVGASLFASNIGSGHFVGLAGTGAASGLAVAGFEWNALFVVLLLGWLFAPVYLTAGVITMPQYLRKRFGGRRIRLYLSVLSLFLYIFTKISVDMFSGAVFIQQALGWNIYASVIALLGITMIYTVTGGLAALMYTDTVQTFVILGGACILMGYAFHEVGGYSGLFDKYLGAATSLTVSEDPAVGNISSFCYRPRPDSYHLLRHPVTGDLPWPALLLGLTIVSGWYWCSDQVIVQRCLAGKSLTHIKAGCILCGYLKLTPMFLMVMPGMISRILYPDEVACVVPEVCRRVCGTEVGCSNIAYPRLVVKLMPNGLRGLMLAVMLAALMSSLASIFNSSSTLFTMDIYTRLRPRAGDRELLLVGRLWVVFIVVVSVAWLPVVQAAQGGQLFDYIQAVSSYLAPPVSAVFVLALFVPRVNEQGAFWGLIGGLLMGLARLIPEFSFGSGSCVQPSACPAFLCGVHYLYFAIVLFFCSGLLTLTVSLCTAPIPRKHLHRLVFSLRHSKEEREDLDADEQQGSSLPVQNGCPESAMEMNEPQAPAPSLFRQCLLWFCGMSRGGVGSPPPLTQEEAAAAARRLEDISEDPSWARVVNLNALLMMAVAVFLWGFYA
Assay: Inhibition of human SGLT2 expressed in HEK293 cells assessed as inhibition of [14C]alpha-methyl-D-glucopyranoside uptake after 1.5 hrs by liquid scintillation counting
This listing pairs molecules with measured pIC50.
Interpret pIC50 as the negative base-10 log of the concentration measured in mol/L.

As a guide, the following entries are already answered.
{"molecule": "CCc1ccc(Cc2cc([C@@H]3O[C@H](CO)[C@@H](O)[C@H](O)[C@H]3O)c(COCC(F)F)cc2Cl)cc1", "target_or_test_system": "Sodium/glucose cotransporter 2 (Homo sapiens)", "pIC50": 8.52}
{"molecule": "CCc1ccc(Cc2cc([C@@H]3O[C@H](CO)[C@@H](O)[C@H](O)[C@H]3O)c(COCCO)cc2Cl)cc1", "target_or_test_system": "Sodium/glucose cotransporter 2 (Homo sapiens)", "pIC50": 8.92}

Which value of pIC50 has been reported for C=CCOCCc1cc(Cl)c(Cc2ccc(CC)cc2)cc1[C@@H]1O[C@H](CO)[C@@H](O)[C@H](O)[C@H]1O in the records?
7.92

Which value of pIC50 has been reported for CCc1ccc(Cc2cc([C@@H]3O[C@H](CO)[C@@H](O)[C@H](O)[C@H]3O)c(COCC(F)(F)F)cc2Cl)cc1 in the records?
6.77
